Taken from patent US20140377340A1.

This section presents compounds with their documented IC50 values.
- tested_system: purified HLA DRB1*1201 (Homo sapiens, UniProt P01903+P01911, A100R/A169T/D57E/D86V/F55L/H45Y/K41T/L162R/M171V/P40S/Q125H/Q178H/Q39Y/Q99D/R42G/S66L/T262R/V114A/V67L/W38E/Y59H/Y61H/Y89S)
- Construct: purified from EBV transformed homozygous cell lines or single MHC allele transfected 721.221, C1R, or fibroblast lines; made in house
- experiment: HLA-DR radioligand binding inhibition assay, DRB1*1201
- Method: Instead, wells of an opaque white 96-well Optiplate (Packard) are coated with 3 μg (100 μl@ 30 μg/ml) of HLA-specific antibody (Ab) that “capture” complexes of radiolabeled MHC and unlabeled peptide transferred from the molecular binding assay plate in 100 μl of 0.05% NP40/PBS. […] Captured complexes are then measured on a microplate scintillation and luminescence counter (TopCount NXTTM; Packard). […]
measurement_name: IC50

{"columns": ["compound", "value"],
 "data": [
  ["CC[C@H](C)[C@H](NC(=O)[C@H](CO)NC(=O)[C@@H]1CCCN1C(=O)[C@H](CCCCN)NC(=O)[C@@H]1CCCN1C(=O)[C@H](CC(C)C)NC(=O)[C@H](CCC(=O)O)NC(=O)[C@H](C)NC(=O)[C@H](CO)NC(=O)[C@@H](NC(=O)[C@@H](NC(=O)[C@@H](NC(=O)[C@@H](N)[C@@H](C)O)[C@@H](C)CC)[C@@H](C)O)C(C)C)C(=O)N[C@@H](CO)C(=O)N[C@@H](CO)C(=O)O [Peptide 9019.0132]", "> 20000 nM"],
  ["CC[C@H](C)[C@H](NC(=O)[C@H](CS)NC(=O)[C@H](CC(C)C)NC(=O)[C@H](CCCCN)NC(=O)[C@H](CCC(=O)O)NC(=O)[C@H](C)NC(=O)[C@@H](NC(=O)[C@H](CC(C)C)NC(=O)[C@@H]1CCCN1C(=O)[C@@H](NC(=O)[C@@H](N)[C@@H](C)O)[C@@H](C)CC)[C@@H](C)O)C(=O)N[C@@H](Cc1ccc(O)cc1)C(=O)N[C@H](C(=O)N[C@@H](CC(=O)O)C(=O)N[C@@H](CC(N)=O)C(=O)O)[C@@H](C)O [Peptide 1622.01]", "> 20000 nM"],
  ["CC[C@H](C)[C@H](NC(=O)[C@@H](NC(=O)[C@H](Cc1c[nH]cn1)NC(=O)[C@@H](N)CC(C)C)C(C)C)C(=O)N[C@@H](CCCCN)C(=O)N[C@@H](CO)C(=O)N[C@@H](CC(=O)O)C(=O)N[C@@H](CC(C)C)C(=O)N[C@H](C(=O)N[C@@H](CC(N)=O)C(=O)N[C@@H](CCC(=O)O)C(=O)N[C@@H](CCC(=O)O)C(=O)N[C@@H](C)C(=O)N[C@H](C(=O)NCC(=O)O)[C@@H](C)O)C(C)C [Peptide 9019.0005]", "> 20000 nM"]
]}

---

This section presents compounds with their documented IC50 values.
- tested_system: purified HLA DRB1*1101 (Homo sapiens, UniProt P01903+P01911, A100R/A169T/A87E/I96F/K41T/L162R/M171V/P40S/Q125H/Q178H/Q39Y/Q99D/R42S/S66Y/T262R/V115G/W38E)
- Construct: purified from EBV transformed homozygous cell lines or single MHC allele transfected 721.221, C1R, or fibroblast lines; made in house
- Sequence (P01903 26-254, other chains not shown): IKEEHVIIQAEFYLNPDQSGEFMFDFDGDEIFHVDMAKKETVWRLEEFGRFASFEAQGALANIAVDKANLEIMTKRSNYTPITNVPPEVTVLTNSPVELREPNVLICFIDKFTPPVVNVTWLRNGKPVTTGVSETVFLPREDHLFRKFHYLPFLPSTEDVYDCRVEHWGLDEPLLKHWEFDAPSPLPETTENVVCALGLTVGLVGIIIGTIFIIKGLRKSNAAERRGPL
- experiment: HLA-DR radioligand binding inhibition assay, DRB1*1101
- test_parameters: IC50 nM purified HLA DRB1 *1101, purified HLA DRB1*1101
- Description: Instead, wells of an opaque white 96-well Optiplate (Packard) are coated with 3 μg (100 μl@ 30 μg/ml) of HLA-specific antibody (Ab) that “capture” complexes of radiolabeled MHC and unlabeled peptide transferred from the molecular binding assay plate in 100 μl of 0.05% NP40/PBS. […] Captured complexes are then measured on a microplate scintillation and luminescence counter (TopCount NXTTM; Packard). […]

{"columns": ["compound", "IC50"],
 "data": [
  ["CC[C@H](C)[C@H](NC(=O)[C@@H](NC(=O)[C@@H](NC(=O)[C@@H](NC(=O)[C@@H](NC(=O)[C@@H](NC(=O)[C@@H](N)CCCNC(=N)N)[C@@H](C)O)[C@@H](C)O)C(C)C)[C@@H](C)O)[C@@H](C)O)C(=O)N[C@H](C(=O)N[C@H](C(=O)N[C@@H](Cc1ccc(O)cc1)C(=O)N[C@@H](C)C(=O)N[C@@H](CCC(=O)O)C(=O)N1CCC[C@H]1C(=O)N1CCC[C@H]1C(=O)N[C@@H](CCCCN)C(=O)O)C(C)C)[C@@H](C)O [Peptide 9019.0124]", "> 20000 nM"],
  ["CC[C@H](C)[C@H](NC(=O)[C@@H](NC(=O)[C@@H]1CCCN1C(=O)[C@H](C)NC(=O)[C@H](CC(=O)O)NC(=O)[C@@H]1CCCN1C(=O)CNC(=O)[C@H](Cc1ccc(O)cc1)NC(=O)[C@H](CC(C)C)NC(=O)[C@@H](NC(=O)[C@H](CC(N)=O)NC(=O)[C@@H](N)CC(C)C)C(C)C)[C@@H](C)O)C(=O)N[C@@H](CO)C(=O)N1CCC[C@H]1C(=O)N[C@@H](CC(C)C)C(=O)O [Peptide 9019.0120]", "> 20000 nM"],
  ["CC(C)C[C@H](NC(=O)[C@H](CC(N)=O)NC(=O)[C@H](C)NC(=O)CNC(=O)[C@H](CO)NC(=O)[C@H](CC(C)C)NC(=O)[C@H](Cc1ccc(O)cc1)NC(=O)[C@H](CO)NC(=O)[C@@H](N)CO)C(=O)N[C@@H](CC(N)=O)C(=O)N[C@@H](CC(C)C)C(=O)N[C@@H](CO)C(=O)N[C@@H](CS)C(=O)N[C@@H](Cc1c[nH]cn1)C(=O)N[C@@H](CO)C(=O)O [Peptide 9019.0137]", "> 20000 nM"]
]}
